# TESTED_ON: c-MET (Homo sapiens, UniProt P08581)
# Sequence (P08581 25-1390): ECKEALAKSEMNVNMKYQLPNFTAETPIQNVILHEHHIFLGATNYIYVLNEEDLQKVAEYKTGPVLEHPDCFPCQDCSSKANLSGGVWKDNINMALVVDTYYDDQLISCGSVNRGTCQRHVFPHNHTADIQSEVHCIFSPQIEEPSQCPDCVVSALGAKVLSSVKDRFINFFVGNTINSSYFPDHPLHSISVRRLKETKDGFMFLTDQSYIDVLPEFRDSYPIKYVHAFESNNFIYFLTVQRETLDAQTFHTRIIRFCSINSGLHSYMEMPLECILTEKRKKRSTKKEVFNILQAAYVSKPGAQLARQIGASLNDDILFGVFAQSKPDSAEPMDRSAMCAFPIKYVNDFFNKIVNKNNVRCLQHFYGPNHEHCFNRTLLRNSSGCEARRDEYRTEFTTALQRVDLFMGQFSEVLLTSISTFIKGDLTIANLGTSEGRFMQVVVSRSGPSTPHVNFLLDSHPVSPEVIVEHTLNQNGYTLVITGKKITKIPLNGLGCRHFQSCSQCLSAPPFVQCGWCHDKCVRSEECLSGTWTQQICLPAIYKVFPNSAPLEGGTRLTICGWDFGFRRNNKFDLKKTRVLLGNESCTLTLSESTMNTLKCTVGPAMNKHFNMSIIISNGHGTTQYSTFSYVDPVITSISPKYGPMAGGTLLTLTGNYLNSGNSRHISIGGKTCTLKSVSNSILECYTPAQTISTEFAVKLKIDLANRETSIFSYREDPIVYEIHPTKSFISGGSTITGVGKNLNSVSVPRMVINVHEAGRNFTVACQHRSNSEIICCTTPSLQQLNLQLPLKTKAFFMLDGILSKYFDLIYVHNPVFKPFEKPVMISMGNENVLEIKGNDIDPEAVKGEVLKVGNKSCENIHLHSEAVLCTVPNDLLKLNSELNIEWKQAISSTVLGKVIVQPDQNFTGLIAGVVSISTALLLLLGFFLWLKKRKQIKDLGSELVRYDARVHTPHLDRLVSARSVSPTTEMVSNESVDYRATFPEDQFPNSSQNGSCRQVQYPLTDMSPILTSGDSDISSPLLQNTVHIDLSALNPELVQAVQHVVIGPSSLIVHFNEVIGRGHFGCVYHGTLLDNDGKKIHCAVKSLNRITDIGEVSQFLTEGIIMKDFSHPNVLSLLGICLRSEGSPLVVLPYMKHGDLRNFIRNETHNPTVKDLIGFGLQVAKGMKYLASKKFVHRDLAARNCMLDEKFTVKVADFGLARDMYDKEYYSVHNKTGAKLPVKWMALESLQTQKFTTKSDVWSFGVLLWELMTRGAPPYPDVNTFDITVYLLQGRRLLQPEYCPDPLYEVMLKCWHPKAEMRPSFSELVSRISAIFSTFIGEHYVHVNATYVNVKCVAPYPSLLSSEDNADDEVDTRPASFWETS
# PROCEDURE_DETAILS: HTRF kinase inhibitory assay, c-MET
# Assay type: biochemical
# CONDITION_DESCRIPTION: read-out: c-MET Inhibition (1μM)
Quick list: inhibition at 1 µM per entry.

Some compounds with known inhibition at 1 µM results, for comparison:
C[C@@H](Oc1cc(-c2cnn(C)c2)cnc1N)c1ccccc1-c1ccnn1C ... 21%
C[C@@H](Oc1cc(-c2ccnn2C)cnc1N)c1ccccc1 ... 5%
CCn1cc(-c2cnc(N)c(O[C@H](C)c3ccccc3-c3ccnn3C)c2)cn1 ... 28%

Query :: Supply reported inhibition at 1 µM belonging to this compound: "C[C@@H](Oc1cc(-c2cccn2C)cnc1N)c1ccccc1-c1ccccc1"
Result :: 9%

Query :: Supply reported inhibition at 1 µM belonging to this compound: "C[C@@H](Oc1cc(-c2cnn(C)c2)cnc1N)c1ccccc1"
Result :: 2%

These data points were gathered from paper PMC10288926.
